Below, each entry is listed with its recorded glycan array binding signal (z-score).
- TESTED_SYSTEM: Gal3S(b1-4)GlcNAc6S
- TEST_DESCRIPTION: glycan array binding signal (z-score within array); higher = stronger binding
- EXPERIMENTAL_CONTEXT: glycan notation: IUPAC condensed, linker removed
About 410 targets per protein were measured; listed, in parts, are those with the strongest signals and a random draw of the rest.
Give the value as a plain number.

The examples below pair each entry with its known result.
INSERT INTO results (binder, assay_readout, test_value) VALUES
  ('CREG (Mus musculus), O88668 (protein) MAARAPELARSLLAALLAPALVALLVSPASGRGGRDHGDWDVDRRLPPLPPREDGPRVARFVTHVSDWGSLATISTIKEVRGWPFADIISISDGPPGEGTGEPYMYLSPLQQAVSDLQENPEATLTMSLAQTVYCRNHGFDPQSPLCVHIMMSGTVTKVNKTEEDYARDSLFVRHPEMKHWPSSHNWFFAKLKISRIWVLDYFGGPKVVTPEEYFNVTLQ', 'glycan array binding signal (z-score)', 0.604),
  ('DCIR (Homo sapiens), Q9UMR7 (protein) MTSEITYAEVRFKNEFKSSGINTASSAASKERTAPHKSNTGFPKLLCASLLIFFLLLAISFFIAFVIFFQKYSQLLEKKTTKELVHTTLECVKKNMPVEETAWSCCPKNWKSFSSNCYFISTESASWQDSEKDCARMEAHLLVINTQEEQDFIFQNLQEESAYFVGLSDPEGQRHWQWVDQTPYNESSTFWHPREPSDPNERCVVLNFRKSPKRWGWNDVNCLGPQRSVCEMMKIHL', 'glycan array binding signal (z-score)', 5.68),
  ('MIG/CXCL9 (Homo sapiens) (protein) TPVVRKGRCSCISTNQGTIHLQSLKDLKQFAPSPSCEKIEIIIATLKNGVQTCLNPDSADVKELIKKTEKQVSQKKKQKNGKKHQKKKVLKVRKSQRSRQKKTT', 'glycan array binding signal (z-score)', 2.28),
  ('Gal 9 (Homo sapiens), O00182 (protein) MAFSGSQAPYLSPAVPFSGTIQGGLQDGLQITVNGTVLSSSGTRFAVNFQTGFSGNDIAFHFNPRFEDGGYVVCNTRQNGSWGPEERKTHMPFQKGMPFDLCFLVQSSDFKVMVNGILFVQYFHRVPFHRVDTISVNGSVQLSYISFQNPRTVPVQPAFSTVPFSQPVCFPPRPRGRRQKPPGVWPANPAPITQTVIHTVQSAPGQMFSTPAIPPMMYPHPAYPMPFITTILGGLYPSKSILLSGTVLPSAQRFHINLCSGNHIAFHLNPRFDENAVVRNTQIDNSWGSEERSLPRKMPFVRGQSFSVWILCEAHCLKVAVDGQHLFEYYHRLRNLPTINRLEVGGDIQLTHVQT', 'glycan array binding signal (z-score)', 4.06),
  ('CLEC7A (Homo sapiens), Q9BXN2 (protein) MEYHPDLENLDEDGYTQLHFDSQSNTRIAVVSEKGSCAASPPWRLIAVILGILCLVILVIAVVLGTMAIWRSNSGSNTLENGYFLSRNKENHSQPTQSSLEDSVTPTKAVKTTGVLSSPCPPNWIIYEKSCYLFSMSLNSWDGSKRQCWQLGSNLLKIDSSNELGFIVKQVSSQPDNSFWIGLSRPQTEVPWLWEDGSTFSSNLFQIRTTATQENPSPNCVWIHVSVIYDQLCSVPSYSICEKKFSM', 'glycan array binding signal (z-score)', 1.21);

Field: next binder
Req: // returns reported glycan array binding signal (z-score) for input GNA (Galanthus nivalis), P30617 (protein) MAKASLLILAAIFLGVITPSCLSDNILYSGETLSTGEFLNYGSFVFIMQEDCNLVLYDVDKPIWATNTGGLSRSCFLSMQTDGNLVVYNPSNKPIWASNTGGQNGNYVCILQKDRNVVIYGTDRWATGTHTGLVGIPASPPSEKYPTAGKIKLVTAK
Resp: 0.332

Hey, just so you know, these numbers are from the supplement of paper PMC8728848.
